- System: Staphylococcus aureus
- measurement_notes: Antibacterial activity against methicillin-sensitive Staphylococcus aureus ATCC 29213 after 16 to 20 hrs by broth microdilution method
- Assay type: functional
reported_endpoint: MIC

INSERT INTO measurements (structure_notation, target_or_test_system, observed_result) VALUES
  ('Fc1ccc(-c2nc(-c3ccc(Oc4ccccc4)cc3)no2)cc1', 'Staphylococcus aureus', '≥ 128 µg/mL'),
  ('COc1cc(-c2nc(-c3ccc(Oc4ccc(C(F)(F)F)cc4)cc3)no2)ccc1O', 'Staphylococcus aureus', '≥ 128 µg/mL'),
  ('Oc1ccc(-c2nc(-c3ccc(Oc4ccc(C(F)(F)F)cc4)cc3)no2)cc1O', 'Staphylococcus aureus', '2 µg/mL'),
  ('Fc1ccc(Oc2ccc(-c3noc(-c4c[nH]c5ncccc45)n3)cc2)cc1', 'Staphylococcus aureus', '≥ 128 µg/mL'),
  ('O=[N+]([O-])c1cc(-c2nc(-c3ccc(Oc4ccc(C(F)(F)F)cc4)cc3)no2)cnc1O', 'Staphylococcus aureus', '8 µg/mL'),
  ('Oc1c(F)cc(-c2nc(-c3ccc(Oc4ccc(C(F)(F)F)cc4)cc3)no2)cc1F', 'Staphylococcus aureus', '2 µg/mL'),
  ('Oc1ccccc1-c1nc(-c2ccc(Oc3ccccc3)cc2)no1', 'Staphylococcus aureus', '≥ 128 µg/mL'),
  ('COc1ccc(-c2nc(-c3ccc(Oc4ccccc4)cc3)no2)cc1N', 'Staphylococcus aureus', '≥ 128 µg/mL'),
  ('O=[N+]([O-])c1ccc(-c2nc(-c3ccc(Oc4ccc(C(F)(F)F)cc4)cc3)no2)cc1', 'Staphylococcus aureus', '≥ 128 µg/mL'),
  ('CC(=O)Nc1ccc(-c2nc(-c3ccc(Oc4ccc(C(F)(F)F)cc4)cc3)no2)cc1', 'Staphylococcus aureus', '≥ 128 µg/mL'),
  ('c1ccc(Oc2ccc(-c3noc(-c4ccncc4)n3)cc2)cc1', 'Staphylococcus aureus', '≥ 128 µg/mL'),
  ('[O-][n+]1ccc(-c2nc(-c3ccc(Oc4ccccc4)cc3)no2)cc1', 'Staphylococcus aureus', '≥ 128 µg/mL'),
  ('Brc1c[nH]nc1-c1nc(-c2ccc(Oc3ccccc3)cc2)no1', 'Staphylococcus aureus', '1 µg/mL'),
  ('Nc1ccc(-c2nc(-c3ccc(Oc4ccccc4)cc3)no2)cc1', 'Staphylococcus aureus', '4 µg/mL'),
  ('CS(=O)(=O)Nc1ccc(-c2nc(-c3ccc(Oc4ccc(C(F)(F)F)cc4)cc3)no2)cc1', 'Staphylococcus aureus', '≥ 128 µg/mL');

----------
- Test system: Staphylococcus aureus
- measurement_notes: Antibacterial activity against methicillin-sensitive Staphylococcus aureus ATCC 29213 after 16 to 20 hrs by broth microdilution method
- Format: functional
Examples of molecules with documented MIC follow.
reported_endpoint: MIC (µg/mL)

INSERT INTO measurements (structure_notation, value_units, value_relation_sign, observed_result) VALUES
  ('CCOP(=O)(OCC)c1c[nH]nc1-c1nc(-c2ccc(Oc3ccc(C(F)(F)F)cc3)cc2)no1', 'µg/mL', '≥', 128),
  ('Nc1c[nH]nc1-c1nc(-c2ccc(Oc3ccccc3)cc2)no1', 'µg/mL', '=', 16),
  ('Nc1cncc(-c2nc(-c3ccc(Oc4ccc(C(F)(F)F)cc4)cc3)no2)c1', 'µg/mL', '≥', 128),
  ('Nc1c(F)cc(-c2nc(-c3ccc(Oc4ccc(C(F)(F)F)cc4)cc3)no2)cc1F', 'µg/mL', '=', 4),
  ('Oc1c(F)cc(-c2nc(-c3ccc(Oc4ccc(F)cc4)cc3)no2)cc1F', 'µg/mL', '=', 8),
  ('CCn1ccc(-c2nc(-c3ccc(Oc4ccc(F)cc4)cc3)no2)n1', 'µg/mL', '≥', 128),
  ('Ic1c[nH]nc1-c1nc(-c2ccc(Oc3ccccc3)cc2)no1', 'µg/mL', '=', 1),
  ('Nc1cncc(-c2nc(-c3ccc(Oc4ccc(F)cc4)cc3)no2)c1', 'µg/mL', '≥', 128),
  ('COc1ccc(-c2nc(-c3ccc(Oc4ccc(C(F)(F)F)cc4)cc3)no2)cc1OC', 'µg/mL', '≥', 128),
  ('Nc1c[nH]nc1-c1nc(-c2ccc(Oc3ccc(F)cc3)cc2)no1', 'µg/mL', '=', 16),
  ('Nc1ccc(-c2nc(-c3ccc(Oc4ccc(C(F)(F)F)cc4)cc3)no2)cc1F', 'µg/mL', '=', 2),
  ('FC(F)(F)c1ccc(Oc2ccc(-c3noc(-c4c[nH]c5ncccc45)n3)cc2)cc1', 'µg/mL', '≥', 128),
  ('Fc1ccc(Oc2ccc(-c3noc(-c4n[nH]c5ccccc45)n3)cc2)cc1', 'µg/mL', '≥', 128),
  ('Oc1ccc(-c2nc(-c3ccc(Oc4ccccc4)cc3)no2)cc1F', 'µg/mL', '=', 4),
  ('Clc1c[nH]nc1-c1nc(-c2ccc(Oc3ccccc3)cc2)no1', 'µg/mL', '=', 1),
  ('Nc1cc(-c2nc(-c3ccc(Oc4ccc(C(F)(F)F)cc4)cc3)no2)cnc1O', 'µg/mL', '≥', 128),
  ('CCOP(=O)(OCC)c1ccc(-c2nc(-c3ccc(Oc4ccc(F)cc4)cc3)no2)cc1', 'µg/mL', '≥', 128),
  ('COc1ccc(-c2nc(-c3ccc(Oc4ccc(F)cc4)cc3)no2)cc1[N+](=O)[O-]', 'µg/mL', '≥', 128),
  ('Oc1ccc(-c2nc(-c3ccc(Oc4ccc(F)cc4)cc3)no2)cn1', 'µg/mL', '≥', 128),
  ('Cc1ccc(S(=O)(=O)N2CCC(c3nc(-c4ccc(Oc5ccc(F)cc5)cc4)no3)CC2)cc1', 'µg/mL', '≥', 128),
  ('O=[N+]([O-])c1c[nH]nc1-c1nc(-c2ccc(Oc3ccc(F)cc3)cc2)no1', 'µg/mL', '=', 1),
  ('Nc1cc(-c2nc(-c3ccc(Oc4ccc(F)cc4)cc3)no2)cnc1O', 'µg/mL', '≥', 128),
  ('O=[N+]([O-])c1c[nH]nc1-c1nc(-c2ccc(Oc3ccccc3)cc2)no1', 'µg/mL', '=', 2),
  ('c1ccc(Oc2ccc(-c3noc(-c4ccc5[nH]ccc5c4)n3)cc2)cc1', 'µg/mL', '=', 2),
  ('O=P(O)(O)c1ccc(-c2nc(-c3ccc(Oc4ccc(F)cc4)cc3)no2)cc1', 'µg/mL', '≥', 128);

----------
- System: HepG2
- measurement_notes: Cytotoxicity against human HepG2 cells assessed as cell viability after 16 hrs by XTT assay
- Assay type: cell-based
- setup_conditions: HepG2, 16 h
Examples of compounds with documented IC50 follow.
reported_endpoint: IC50

INSERT INTO assay_data (structure_notation, observed_result) VALUES
  ('CC(C)Nc1c[nH]nc1-c1nc(-c2ccc(Oc3ccc(C(F)(F)F)cc3)cc2)no1', '3.9 µg/mL'),
  ('C#Cc1c[nH]nc1-c1nc(-c2ccc(Oc3ccc(C(F)(F)F)cc3)cc2)no1', '9.8 µg/mL'),
  ('FC(F)(F)c1ccc(Oc2ccc(-c3noc(-c4n[nH]cc4Cl)n3)cc2)cc1', '24.1 µg/mL');
